Each record here notes measured Bliss excess.
# Tested on: HCT-116 (Colorectal Carcinoma);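 also: after 72 h of two-drug dosing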
# method notes: Bliss excess, mean over the matrix (fraction); higher = more synergy
Respond using a number only.

>  <compound>
CS(=O)(=O)CCNCc1ccc(-c2ccc3ncnc(Nc4ccc(OCc5cccc(F)c5)c(Cl)c4)c3c2)o1 [Lapatinib] + Cn1cnc2c(F)c(Nc3ccc(Br)cc3Cl)c(C(=O)NOCCO)cc21 [Selumetinib] (first compound max 10 µM, 7x7, partner max 10 µM)

>  <target>
HCT-116 (Colorectal Carcinoma);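 also: after 72 h of two-drug dosing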

>  <Bliss excess>
-0.0864

$$$$

For the compound shown here, CC(=O)Nc1cccc(-n2c(=O)n(C3CC3)c(=O)c3c(Nc4ccc(I)cc4F)n(C)c(=O)c(C)c32)c1 [Trametinib] + Cc1nc(-c2cn3c(n2)-c2ccc(-c4cnn(C(C)(C)C(N)=O)c4)cc2OCC3)n(C(C)C)n1 [Taselisib] (first compound max 1 µM, 7x7, partner max 10 µM) , give the reported Bliss excess.
0.124

For the compound shown here, CN(CCO)CC[C@H](CSc1ccccc1)Nc1ccc(S(=O)(=O)NC(=O)c2ccc(N3CCC([C@@H](O)c4ccccc4-c4ccc(Cl)cc4)CC3)cc2)cc1S(=O)(=O)C(F)(F)F [AZD4320] + C[C@@H]1COCCN1C2=NC(=NC(=C2)C3(CC3)[S@](=N)(=O)C)C4=C5C=CNC5=NC=C4 [AZD6738] (first compound max 1 µM, 7x7, partner max 10 µM) , give the reported Bliss excess.
-0.0143

====

# System: HCC-827 (Lung Adenocarcinoma)
# method notes: combination Emax (second highest fraction inhibited in the dose matrix, 72 h); higher = more inhibition; extreme values may be limits of the assay
experimental readout: combination Emax
Respond using a number only.

Worked cases, combination Emax given:
>  <compound>
COc1cccc(OCCCN)c1-c1cc(Nc2cnc(C#N)cn2)n[nH]1 [Prexasertib] + C=CCn1c(=O)c2cnc(Nc3ccc(N4CCN(C)CC4)cc3)nc2n1-c1cccc(C(C)(C)O)n1 [AZD1775] (first compound max 1 µM, partner max 1 µM)

>  <measured value>
0.603

$$$$
>  <compound>
CCN(CCO)CCCOc1ccc2c(Nc3cc(CC(=O)Nc4cccc(F)c4)[nH]n3)ncnc2c1 [AZD2811] + C[C@@H]1COCCN1C2=NC(=NC(=C2)C3(CC3)[S@](=N)(=O)C)C4=C5C=CNC5=NC=C4 [AZD6738] (first compound max 1 µM, 7x7, partner max 10 µM)

>  <measured value>
0.493

$$$$
>  <compound>
CCc1c2c(nc3ccc(O)cc13)-c1cc3c(c(=O)n1C2)COC(=O)[C@]3(O)CC [SN-38] + O=C(c1cc(Cc2n[nH]c(=O)c3ccccc23)ccc1F)N1CCN(C(=O)C2CC2)CC1 [Olaparib] (first compound max 0.3 µM, 7x7, partner max 10 µM)

>  <measured value>
0.497

$$$$

Now for the compound whose combination Emax we want.
For the compound shown here, COc1nnc2ccc(N3CCC(c4ccc(OCCN5CCN(C)C(=O)[C@H]5C)cc4)CC3)nn12 [AZD5153] + CC1(C)CCC(CN2CCN(c3ccc(C(=O)NS(=O)(=O)c4ccc(NCC5CCOCC5)c([N+](=O)[O-])c4)c(Oc4cnc5[nH]ccc5c4)c3)CC2)=C(c2ccc(Cl)cc2)C1 [Venetoclax] (first compound max 1 µM, 7x7, partner max 1 µM) , give the reported combination Emax.
0.348
